# Test: Acute toxicity in rats (Experiment 3)
# Design: species or system Rat (JcL:Wistar)
# Protocol Conditions: rat, in vivo, ip, female, intraperitoneal
Reported Metric: LD50 (mg/kg)
// units = mg/kg; emit number, no label

Prompt: Specify LD50 for CCCCn1c(=O)n(CCC)c(=O)c2c(NC)n(C(=O)OC)nc21 [Compound (A)] and stop.
Completion: 580
